- test: Plasma naloxone concentration after oral dosing in dogs
- Type: in vivo
- test.parameters: in vivo; dog, equimolar oral doses, 8 hours; read-out: Average Plasma Naloxone Conc.
property.name: concentration at 8 h
# output: numeric value plus its unit

Request: I am curious: what concentration at 8 h value has been reported for C=CCN1CC[C@]23c4c5ccc(O)c4O[C@H]2C(=O)CC[C@@]3(O)[C@H]1C5 ?
Result: 5 ng/mL

Request: I am curious: what concentration at 8 h value has been reported for C=CC[N+]1([O-])CC[C@]23c4c5ccc(O)c4O[C@H]2C(=O)CC[C@@]3(O)[C@H]1C5 (some centres unmarked) [Naloxone N-oxide, naloxone N-oxide] ?
Result: 6 ng/mL

----------
Could you please report measured concentration at 2 h for the items listed next?
- test: Plasma naloxone concentration after oral dosing in dogs
- Assay type: in vivo
- test.parameters: in vivo; dog, equimolar oral doses, 2 hours; read-out: Average Plasma Naloxone Conc.
State the answer as a number, implicitly in ng/mL.

Request: I am curious: what concentration at 2 h value has been reported for C=CC[N+]1([O-])CC[C@]23c4c5ccc(O)c4O[C@H]2C(=O)CC[C@@]3(O)[C@H]1C5 (some centres unmarked) [Naloxone N-oxide, naloxone N-oxide] ?
Result: 797

Request: I am curious: what concentration at 2 h value has been reported for C=CCN1CC[C@]23c4c5ccc(O)c4O[C@H]2C(=O)CC[C@@]3(O)[C@H]1C5 ?
Result: 65

----------
- test: In vitro reduction of N-oxide to drug in rat intestine homogenate
- Assay type: in vitro ADME
- test.parameters: in 10 minutes, rat intestine homogenate (25%), 37° C., read-out: Conversion of nalbuphine N-oxide to nalbuphine
property.name: metabolised at 10 min, 0.28 µM (%)
State the answer as a number, implicitly in %.

Request: I am curious: what metabolised at 10 min, 0.28 µM value has been reported for [O-][N+]1(CC2CCC2)CC[C@]23c4c5ccc(O)c4O[C@H]2[C@@H](O)CC[C@@]3(O)[C@H]1C5 (stereo partly shown) [Nalbuphine N-oxide] ?
Result: 100

----------
- test: Plasma naloxone concentration after oral dosing in dogs
- Format: in vivo
- test.parameters: in vivo; dog, equimolar oral doses, 3 hours; read-out: Average Plasma Naloxone Conc.
Could you please report measured concentration at 3 h for the items listed next?
State the answer as a number, implicitly in ng/mL.

Request: I am curious: what concentration at 3 h value has been reported for C=CCN1CC[C@]23c4c5ccc(O)c4O[C@H]2C(=O)CC[C@@]3(O)[C@H]1C5 ?
Result: 30

Request: I am curious: what concentration at 3 h value has been reported for C=CC[N+]1([O-])CC[C@]23c4c5ccc(O)c4O[C@H]2C(=O)CC[C@@]3(O)[C@H]1C5 (some centres unmarked) [Naloxone N-oxide, naloxone N-oxide] ?
Result: 289

----------
- test: In vitro reduction of N-oxide to drug in rat plasma
- Assay type: in vitro ADME
- test.parameters: 37° C., read-out: t1/2 of conversion of nalbuphine N-oxide to nalbuphine (converted)
property.name: half-life at 0.28 µM (h)
State the answer as a number, implicitly in h.

Request: I am curious: what half-life at 0.28 µM value has been reported for [O-][N+]1(CC2CCC2)CC[C@]23c4c5ccc(O)c4O[C@H]2[C@@H](O)CC[C@@]3(O)[C@H]1C5 (stereo partly shown) [Nalbuphine N-oxide] ?
Result: 6

----------
- test: Oral bioavailability in dogs
- Type: in vivo
- test.parameters: plasma, dog, read-out: oral bioavailability of nalbuphine
property.name: bioavailability
# output: numeric value plus its unit

Request: I am curious: what bioavailability value has been reported for Oc1ccc2c3c1O[C@H]1[C@@H](O)CC[C@@]4(O)[C@@H](C2)N(CC2CCC2)CC[C@]314 ?
Result: 5.4%

----------
- test: Plasma naloxone concentration after oral dosing in dogs
- Type: in vivo
- test.parameters: in vivo; dog, equimolar oral doses, 6 hours; read-out: Average Plasma Naloxone Conc.
- Method: Among the experiments used to evaluate the N-oxide prodrugs of the instant invention were measurements of their reduction rates in vitro by various biological media from rats, dogs, and humans, and drug bioavailability in rats and dogs administered oral doses of the prodrug. Drug concentration was determined after solvent extraction, using high pressure liquid chromatography analytical procedures. […]
property.name: concentration at 6 h (ng/mL)
State the answer as a number, implicitly in ng/mL.

Request: I am curious: what concentration at 6 h value has been reported for C=CC[N+]1([O-])CC[C@]23c4c5ccc(O)c4O[C@H]2C(=O)CC[C@@]3(O)[C@H]1C5 (some centres unmarked) [Naloxone N-oxide, naloxone N-oxide] ?
Result: 22

Request: I am curious: what concentration at 6 h value has been reported for C=CCN1CC[C@]23c4c5ccc(O)c4O[C@H]2C(=O)CC[C@@]3(O)[C@H]1C5 ?
Result: 10

----------
- test: Plasma naloxone concentration after oral dosing in dogs
- Assay type: in vivo
- test.parameters: in vivo; dog, equimolar oral doses, 1 hour; read-out: Average Plasma Naloxone Conc.
Could you please report measured concentration at 1 h for the items listed next?
State the answer as a number, implicitly in ng/mL.

Request: I am curious: what concentration at 1 h value has been reported for C=CCN1CC[C@]23c4c5ccc(O)c4O[C@H]2C(=O)CC[C@@]3(O)[C@H]1C5 ?
Result: 176

Request: I am curious: what concentration at 1 h value has been reported for C=CC[N+]1([O-])CC[C@]23c4c5ccc(O)c4O[C@H]2C(=O)CC[C@@]3(O)[C@H]1C5 (some centres unmarked) [Naloxone N-oxide, naloxone N-oxide] ?
Result: 1220

----------
- test: Plasma naloxone concentration after oral dosing in dogs
- Assay type: in vivo
- test.parameters: in vivo; dog, equimolar oral doses, 0.5 hours; read-out: Average Plasma Naloxone Conc.
Could you please report measured concentration at 0.5 h for the items listed next?
State the answer as a number, implicitly in ng/mL.

Request: I am curious: what concentration at 0.5 h value has been reported for C=CCN1CC[C@]23c4c5ccc(O)c4O[C@H]2C(=O)CC[C@@]3(O)[C@H]1C5 [Naloxone] ?
Result: 451

Request: I am curious: what concentration at 0.5 h value has been reported for C=CC[N+]1([O-])CC[C@]23c4c5ccc(O)c4O[C@H]2C(=O)CC[C@@]3(O)[C@H]1C5 (some centres unmarked) [Naloxone N-oxide, naloxone N-oxide] ?
Result: 947

----------
- test: In vitro reduction of N-oxide to drug in rat liver homogenate
- Format: in vitro ADME
- test.parameters: in 3 minutes, rat liver homogenate (25%), 37° C., read-out: Conversion of nalbuphine N-oxide to nalbuphine
property.name: metabolised at 0.05 h, 0.28 µM

Request: I am curious: what metabolised at 0.05 h, 0.28 µM value has been reported for [O-][N+]1(CC2CCC2)CC[C@]23c4c5ccc(O)c4O[C@H]2[C@@H](O)CC[C@@]3(O)[C@H]1C5 (stereo partly shown) [Nalbuphine N-oxide] ?
Result: 100%
